# pIC50 per record follows
- Experimental Target: Cyclin-dependent kinase 2/cyclin A (Homo sapiens)
- Test Description: Inhibition of recombinant CDK2/cyclin A
Lab note — pIC50 values are minus log10 of concentrations in M.

Examples with answers:
>  <Compound>
CC(C)n1cnc2c(NCc3ccc(-c4ccccc4)cc3)nc(NC[C@H](C)NC(=O)OC(C)(C)C)nc21

>  <pIC50>
6.00

$$$$
>  <Compound>
Cc1cccc(-c2ccc(CNc3nc(N[C@H]4CC[C@H](N)CC4)nc4c3ncn4C(C)C)cc2)c1

>  <pIC50>
6.52

$$$$

stdin: Form field: reported pIC50 of "CC(C)n1cnc2c(NCc3ccc(-c4ccccc4)cc3)nc(NC3(CO)CCCC3)nc21"
stdout: 5.70

stdin: Given "CC(C)n1cnc2c(NCc3ccc(-c4ccccc4)cc3)nc(NCCN)nc21" , state its recorded pIC50.
stdout: 6.22

stdin: Record request: pIC50 value, item "COc1cccc(-c2ccc(CNc3nc(N[C@H]4CC[C@H](N)CC4)nc4c3ncn4C(C)C)cc2)c1"
stdout: 6.46

stdin: Requested read-out: pIC50. Entry: "CC(C)n1cnc2c(NCc3ccc(-c4cccc(Cl)c4)cc3)nc(N[C@H]3CC[C@H](N)CC3)nc21"
stdout: 6.40

stdin: If you can, please state the reported pIC50 value of "Cn1cnc2c(NCc3ccc(-c4ccccc4)cc3)nc(N[C@H]3CC[C@H](N)CC3)nc21" .
stdout: 6.00

stdin: Quick check: pIC50 of "N[C@H]1CC[C@H](Nc2nc(NCc3ccc(-c4ccccc4)cc3)c3ncn(C4CCCC4)c3n2)CC1" ?
stdout: 7.00

stdin: What value of pIC50 has been recorded for this entry: "CC(C)n1cnc2c(NCc3ccc(-c4ccccc4)cc3)nc(N[C@@H]3CCCC[C@@H]3N)nc21"
stdout: 6.05

stdin: May I ask what pIC50 has been recorded for "CC(C)n1cnc2c(NCc3ccc(-c4ccccc4)cc3)nc(N[C@H]3CC[C@H](NS(C)(=O)=O)CC3)nc21" ?
stdout: 6.30

stdin: Which pIC50 is reported for this compound? CC(Nc1nc(N[C@H]2CC[C@H](N)CC2)nc2c1ncn2C(C)C)c1ccc(-c2ccccc2)cc1 (some centres not stated)
stdout: 5.30

----------
- Experimental Target: Cyclin-dependent kinase 2/cyclin E (Homo sapiens)
- Test Description: Inhibition of recombinant CDK2/cyclin E
Readout Name: pIC50
pIC50 (log units): -log10 of the concentration in mol/L.

Please review the entries below; each comes with its answer.
>  <Compound>
CC(C)n1cnc2c(NCc3ccc(-c4ccccc4)cc3)nc(NCCN)nc21

>  <Readout Value>
6.30

$$$$
>  <Compound>
CC(C)n1cnc2c(NCc3ccc(-c4ccccc4)cc3)nc(N[C@@H]3CCCC[C@H]3N)nc21

>  <Readout Value>
6.05

$$$$
>  <Compound>
CC(C)n1cnc2c(NCc3ccc(-c4cccc(Cl)c4)cc3)nc(N[C@H]3CC[C@H](N)CC3)nc21

>  <Readout Value>
6.40

$$$$

stdin: Which measured pIC50 value corresponds to "CC(C)n1cnc2c(NCc3ccc(-c4ccccc4)cc3)nc(N[C@H]3CC[C@H](NCC4CC4)CC3)nc21" ?
stdout: 6.52

stdin: Which value of pIC50 has been reported for "Cc1ccc(-c2ccc(CNc3nc(N[C@H]4CC[C@H](N)CC4)nc4c3ncn4C(C)C)cc2)cc1" in the records?
stdout: 6.70

stdin: Need pIC50 of CC(Nc1nc(N[C@H]2CC[C@H](N)CC2)nc2c1ncn2C(C)C)c1ccc(-c2ccccc2)cc1 (stereo partly drawn) , thanks.
stdout: 5.40

stdin: Returns the measured pIC50 for the input compound. Input: "CCC(=O)N[C@H]1CC[C@H](Nc2nc(NCc3ccc(-c4ccccc4)cc3)c3ncn(C(C)C)c3n2)CC1"
stdout: 6.70

stdin: Name the reported pIC50 value associated with the compound "CCN[C@H]1CC[C@H](Nc2nc(NCc3ccc(-c4ccccc4)cc3)c3ncn(C(C)C)c3n2)CC1"
stdout: 6.00

stdin: Fill in the blank: the reported pIC50 of "CCN(CC)[C@H]1CC[C@H](Nc2nc(NCc3ccc(-c4ccccc4)cc3)c3ncn(C(C)C)c3n2)CC1" is ____.
stdout: 5.52

stdin: Which value of pIC50 has been reported for "COc1cccc(-c2ccc(CNc3nc(N[C@H]4CC[C@H](N)CC4)nc4c3ncn4C(C)C)cc2)c1" in the records?
stdout: 6.82

stdin: Field request: pIC50 | item: "CC(C)n1cnc2c(NCc3ccc(-c4ccccc4)cc3)nc(N3CCC(CN)CC3)nc21"
stdout: 6.00

stdin: Need pIC50 of "N[C@H]1CC[C@H](Nc2nc(NCc3ccc(-c4ccccc4)cc3)c3ncn(C4CCCC4)c3n2)CC1" , thanks.
stdout: 7.05

stdin: Entry "Cc1cccc(-c2ccc(CNc3nc(N[C@H]4CC[C@H](N)CC4)nc4c3ncn4C(C)C)cc2)c1" : reported pIC50 = ?
stdout: 6.70

stdin: Item under review: CC(C)n1cnc2c(NCc3ccc(-c4ccccc4)cc3)nc(N3CCC(N)C3)nc21 (stereo not drawn) . Reported pIC50?
stdout: 5.52

stdin: Could you tell me which pIC50 is on file for "CC(C)n1cnc2c(NCc3ccc(-c4ccccc4)cc3)nc(NC[C@H](C)NC(=O)OC(C)(C)C)nc21" ?
stdout: 6.10

stdin: What measured pIC50 goes with "CC(C)n1cnc2c(NCCc3ccc(-c4ccccc4)cc3)nc(N[C@H]3CC[C@H](N)CC3)nc21" ?
stdout: 6.10

stdin: What value of pIC50 has been reported for the following compound? "CCCN[C@H]1CC[C@H](Nc2nc(NCc3ccc(-c4ccccc4)cc3)c3ncn(C(C)C)c3n2)CC1"
stdout: 6.40
